Source of measurements: patent US11466025B2

- protocol summary: Stability of the compounds under high temperature, high humidity and light (influence factors, HPLC)
- Format: physicochemical
- measurement context: 30 days, Light 4500 ± 500 LX
- Procedure: Study on the Stability of the Compounds: The stability of the compound is investigated under the conditions of high temperature, high humidity and light. The testing conditions for high performance liquid chromatography (HPLC) are as follows: Instrument: high performance liquid chromatography; Column: Inertsil C8-3, 150 mm×4.6 mm, 5 μm; Mobile phase A: acetonitrile; mobile phase B: 5 mM ammonium dihydrogen phosphate; Detection wavelength: 220 nm; Column temperature: 35° C.; […]
// Chromatographic purity % lookup, one value per entry
# number only, unit % dropped from output

# annotated cases, reported Chromatographic purity % shown
C/C=C/C=C/C(=O)Oc1cc2c(s1)CCN([C@H](C(=O)OC)c1ccccc1Cl)C2
95.099
COC(=O)[C@H](c1ccccc1Cl)N1CCc2sc(OC(C)=O)cc2C1.Cl [Compound D-9, reference compound]
91.198

query: What Chromatographic purity % value was documented for this compound, COC(=O)[C@H](c1ccccc1Cl)N1CCc2sc(OC(=O)/C=C/c3ccc(OC)cc3)cc2C1 [Compound D-8, reference compound] ?
result: 59.908

query: Also need `C/C=C/C(=O)Oc1cc2c(s1)CCN([C@H](C(=O)OC)c1ccccc1Cl)C2` , thanks.
result: 98.868
